Tested on: JAK1-dependent STAT6 phosphorylation downstream of IL-13 stimulation in TF-1 human erythroleukemia cells
Assay: JAK1 pathway assay in TF-1 cells (IL-13-pSTAT6, MSD)
Assay type: cell-based
Settings: Homo sapiens, TF-1, TF-1 cells, read-out: IL13-pSTAT6 EC50_TF-1
Please respond with true (1) when measured EC50 is strictly beneath 10 nM, and with false (0) in all other cases.

| compound | assigned.class |
| --- | --- |
| CN1CCN(C(=O)Cn2cc(NC(=O)c3cnn4cccnc34)c(-c3cc(Cl)ccc3OC(F)F)n2)CC1 [Example 227] | true (1) |
| Nc1nn2cccnc2c1C(=O)Nc1cn(C2CCN(CCCNC(=O)c3ccccc3)CC2)nc1-c1cc(Cl)ccc1OC(F)F [Example 145] | false (0) |
| CN(CCC#N)C1CCN(c2nc(-c3cc(Cl)ccc3OC(F)F)c(NC(=O)c3cnn4cccnc34)s2)CC1 [Example 189] | true (1) |
| CC(=O)N1CCC(CN2CCC(n3cc(NC(=O)c4c(N)nn5cccnc45)c(-c4cc(Cl)ccc4OC(F)F)n3)CC2)CC1 [Example 173] | true (1) |
| CN(C(=O)Cn1cc(NC(=O)c2cnn3cccnc23)c(-c2cc(Cl)ccc2OC(F)F)n1)C1(CO)CC1 [Example 293] | true (1) |
| CC(C)Oc1ccc(CN(C)C2CCN(C(=O)Cn3cc(NC(=O)c4cnn5cccnc45)c(-c4cc(Cl)ccc4OC(F)F)n3)CC2)cc1 [Example 125] | false (0) |
| NC[C@@H]1CCCN1C(=O)Cn1cc(NC(=O)c2cnn3cccnc23)c(-c2cc(Cl)ccc2OC(F)F)n1 [Example 81] | false (0) |

###

The compounds listed here are annotated with their EC50.
Test system: JAK1-dependent STAT6 phosphorylation downstream of IL-13 stimulation in BEAS-2B human bronchial epithelial cells
Experiment: JAK1 pathway assay in BEAS-2B cells (IL-13-pSTAT6, MSD)
Assay type: cell-based
Settings: read-out: IL13-pSTAT6 EC50 (uM)_BEAS-2B

| compound | reading.unit | EC50 |
| --- | --- | --- |
| O=C(Nc1cn(CC(=O)N2CCC(N3CC4CC(C3)O4)CC2)nc1-c1cc(Cl)ccc1OC(F)F)c1cnn2cccnc12 [Example 450] | µM | 0.0126 |
| CNC(=O)[C@@H]1CCCN1CC1CCN(C(=O)Cn2cc(NC(=O)c3cnn4cccnc34)c(-c3cc(Cl)ccc3OC(F)F)n2)CC1 [Example 425] | µM | 0.0411 |
| O=C(O)CNC1CCN(CCn2cc(NC(=O)c3cnn4cccnc34)c(-c3cc(Cl)ccc3OC(F)F)n2)CC1 [Example 311] | µM | 2.6 |
| O=C(Nc1cn(Cc2cn(C3CCN(C4CCOC4)CC3)nn2)nc1-c1cc(Cl)ccc1OC(F)F)c1cnn2cccnc12 (stereo not shown) [Example 455] | µM | 0.021 |
| CN(C)CC#Cc1nc(-c2cc(Cl)ccc2OC(F)F)c(NC(=O)c2cnn3cccnc23)s1 [Example 209] | µM | 0.0415 |
| CCOC(=O)C1CCN(CCN2CCN(C(=O)Cn3cc(NC(=O)c4cnn5cccnc45)c(-c4cc(Cl)ccc4OC(F)F)n3)CC2)CC1 [Example 334] | µM | 0.0061 |
| O=C(Nc1cn(CC(=O)N2CCN(CC3CC3)CC2)nc1-c1cc(Cl)ccc1OC(F)F)c1cnn2cccnc12 [Example 374] | µM | 0.0295 |
| CN(CC1OCCO1)C1CCN(C(=O)Cn2cc(NC(=O)c3cnn4cccnc34)c(-c3cc(Cl)ccc3OC(F)F)n2)CC1 [Example 433] | µM | 0.036 |
| O=C1CCC(Cn2cc(NC(=O)c3cnn4cccnc34)c(-c3cc(Cl)ccc3OC(F)F)n2)O1 (stereo not shown) [Example 323] | µM | 0.0209 |
| CN1C[C@@H]2CN(C(=O)Cn3cc(NC(=O)c4cnn5cccnc45)c(-c4cc(Cl)ccc4OC(F)F)n3)C[C@@H]2C1 [Example 3] | µM | 0.0324 |
| O=C(Cn1cc(NC(=O)c2cnn3cccnc23)c(-c2cc(Cl)ccc2OC(F)F)n1)NCC1(CO)CC1 [Example 291] | µM | 0.0317 |
| CC(C)CN1C[C@@H]2CN(C(=O)Cn3cc(NC(=O)c4cnn5cccnc45)c(-c4cc(Cl)ccc4OC(F)F)n3)C[C@@H]2C1 [Example 28] | µM | 0.177 |
| CCOC(=O)[C@@H](N)CCn1cc(NC(=O)c2cnn3cccnc23)c(-c2cc(Cl)ccc2OC(F)F)n1 [Example 309] | µM | 0.049 |
| CCOC(=O)CNC1CCN(C(=O)Cn2cc(NC(=O)c3cnn4cccnc34)c(-c3cc(Cl)ccc3OC(F)F)n2)CC1 [Example 364] | µM | 0.0952 |
| O=C(Nc1cn(CC(=O)N2CC=CCC2)nc1-c1cc(Cl)ccc1OC(F)F)c1cnn2cccnc12 [Example 284] | µM | 0.0125 |
| CN(CCC#N)C1CCC(=CCn2cc(NC(=O)c3cnn4cccnc34)c(-c3cc(Cl)ccc3OC(F)F)n2)CC1 (stereo not shown) [Example 420] | µM | 0.0301 |
| O=C(Nc1cn(CC(=O)N2CCC(C(=O)O)CC2)nc1-c1cc(Cl)ccc1OC(F)F)c1cnn2cccnc12 [Example 342] | µM | 1.81 |
| CCOC(=O)CN1CCC(n2cc(NC(=O)c3cnn4cccnc34)c(-c3cc(Cl)ccc3OC(F)F)n2)CC1 [Example 366] | µM | 0.312 |
| O=C(Nc1cn(CC(=O)N2CCN(C3CCOC3)CC2)nc1-c1cc(Cl)ccc1OC(F)F)c1cnn2cccnc12 (stereo not shown) [Example 437] | µM | 0.0126 |
| O=C(CN1CCCCC1)Cn1cc(NC(=O)c2cnn3cccnc23)c(-c2cc(Cl)ccc2OC(F)F)n1 [Example 418] | µM | 0.0609 |
| O=C(Nc1cn(CCNCc2ccncc2)nc1-c1cc(Cl)ccc1OC(F)F)c1cnn2cccnc12 [Example 315] | µM | 0.0823 |
| CN(CC1(CC#N)CC1)C1CCN(C(=O)Cn2cc(NC(=O)c3cnn4cccnc34)c(-c3cc(Cl)ccc3OC(F)F)n2)CC1 [Example 435] | µM | 0.0074 |
| N=C(N)CCn1cc(NC(=O)c2cnn3cccnc23)c(-c2cc(Cl)ccc2OC(F)F)n1 [Example 304] | µM | 0.0469 |
| NCCn1cc(NC(=O)c2c(N)nn3cccnc23)c(-c2cc(Cl)ccc2OC(F)F)n1 [Example 295] | µM | 0.0345 |
| O=C(Nc1cn(CC(=O)N2CCN(Cc3ncco3)CC2)nc1-c1cc(Cl)ccc1OC(F)F)c1cnn2cccnc12 [Example 380] | µM | 0.0481 |
| O=C1C=C(CN2CCN(C(=O)Cn3cc(NC(=O)c4cnn5cccnc45)c(-c4cc(Cl)ccc4OC(F)F)n3)CC2)CO1 [Example 351] | µM | 0.0365 |
| CN1CCN(C2CCN(C(=O)Cn3cc(NC(=O)c4cnn5cccnc45)c(-c4cc(Cl)ccc4OC(F)F)n3)CC2)CC1=O [Example 416] | µM | 0.0316 |
| CN(CC1CCC(=O)O1)C1CCN(C(=O)Cn2cc(NC(=O)c3cnn4cccnc34)c(-c3cc(Cl)ccc3OC(F)F)n2)CC1 (stereo not shown) [Example 344] | µM | 0.0484 |

###

Tested on: JAK1-dependent STAT6 phosphorylation downstream of IL-13 stimulation in TF-1 human erythroleukemia cells
Assay: JAK1 pathway assay in TF-1 cells (IL-13-pSTAT6, MSD)
Format: cell-based
Details: Homo sapiens, TF-1, TF-1 cells, read-out: IL13-pSTAT6 EC50_TF-1
pEC50: −log10 of the molar value.

| compound | pEC50 |
| --- | --- |
| CN(C)CC#Cc1nc(-c2cc(Cl)ccc2OC(F)F)c(NC(=O)c2cnn3cccnc23)s1 [Example 209] | 8.13 |
| CNC(=O)CCCN1CCC(n2cc(NC(=O)c3c(N)nn4cccnc34)c(-c3cc(Cl)ccc3OC(F)F)n2)CC1 [Example 149] | 8.08 |
| N#CC1(CN2C[C@@H]3CN(C(=O)Cn4cc(NC(=O)c5cnn6cccnc56)c(-c5cc(Cl)ccc5OC(F)F)n4)C[C@@H]3C2)CCCCC1 [Example 47] | 7.96 |
| CN(C)C[C@@H]1CCCN(C(=O)Cn2cc(NC(=O)c3c(N)nn4cccnc34)c(-c3cc(Cl)ccc3OC(F)F)n2)C1 [Example 82] | 8.06 |
| CCN1CCN(C(=O)Cn2cc(NC(=O)c3cnn4cccnc34)c(-c3cc(Cl)ccc3OC(F)F)n2)CC1 [Example 233] | 8.00 |
| CN(CCC1CCCCC1)C1CCN(C(=O)Cn2cc(NC(=O)c3cnn4cccnc34)c(-c3cc(Cl)ccc3OC(F)F)n2)CC1 [Example 101] | 7.78 |
| O=C(Nc1sc(CN2CCCCC2)nc1-c1cc(Cl)ccc1OC(F)F)c1cnn2cccnc12 [Example 263] | 7.72 |
